assay_procedure: chemical genetic growth profiling, strain panel (AID 1159580);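 further: tested at 20 µM; growth read once vehicle control cultures reached saturation at 30 °C; 1 = growth at the plate median or of vehicle wells; lower values mean less growth of the strain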
experimental_setup: S. cerevisiae deletion strains, growth OD, locus YDL185W, strain tfp1
Hit rate of the full screen: of about 5,500 compounds, about 2,000 (36%) were called active. Inconclusive results (about 18%) are left out. No stated cut-off is given here; in the data, active means normalized growth mostly below about 0.91 (no sharp cut-off); inconclusive means no clear call, values can overlap the other calls; inactive means mostly above about 0.92. Some of the results follow.
Return exactly one item of yes (active), no (inactive)

# outcome recorded in this test, key = COC(=O)[C@@H]1OC(=O)C2OC23[C@@]1(C)CCC1[C@]2(C)C(C[C@H](O)[C@]13C)C(C)(C)[C@H](OC(C)=O)C[C@@H]2OC(C)=O (stereo not given in full)
no

Queued: COc1ccc(C(=O)O)cc1OC
no

Now try O=S(=O)(O)CCS .
no

Please do the same for C#CCN(C)Cc1ccccc1 as well.
no

Further, for COc1ccc([C@H]2Oc3c(I)c(OC)cc(OC)c3C[C@@H]2O)cc1OC ?
no

Lookup COc1ccccc1-c1coc2cc(O)ccc2c1=O
no

Next compound up: CCN(CC)Cc1ccc(Nc2ccnc3cc(Cl)ccc23)cc1O
no

Then what about the compound O=C(O)CCCc1ccccc1 ?
no

Next entry: c1ccc2c(c1)CCCC2C1=NCCN1 (stereo not given)
no

Next compound up: COC(=O)CC1C2(C)CC34OC5(C)OC6(C7/C(=C(/O)C(C)C)C(=O)OC(c8ccoc8)C7(C)C(OC(=O)C(C)C)C(OC)C6(O5)C13C)C(OC)C4(OC)C2OC(C)=O (stereo not given)
no

And what about the compound CC[C@@H](C(=O)C(C)[C@@H](O)[C@H](C)CCc1ccc(C)c(O)c1C(=O)O)C1OC(CC)(C2CC[C@](O)(CC)[C@H](C)O2)C[C@@H]1C (stereo not given in full) ?
no

Same thing, different compound: CCC(C)C(=O)O[C@@H]1C[C@@]2(C)[C@H](c3ccoc3)OC(=O)CC23OC2(C)O[C@]14[C@]1(C)[C@@H](CC(=O)OC)C5(C)CC1(O)[C@](O)(C5OC(=O)C1(C)OC1C)[C@@H](OC(C)=O)[C@]34O2 (stereo not given in full)
no

Consider next the compound Oc1cc(O)c2c(c1)O[C@H](c1ccc(O)c(O)c1)[C@@H](O)C2 in the same way.
no

Next entry: C[C@@H]1CC(Cl)CC[C@H]1C(=O)OC(C)(C)C (stereo not given in full)
no

Same thing, different compound: Oc1cc(O)c2c(c1)OC(c1cc(O)c(O)c(O)c1)C(O)C2c1c(O)cc(O)c2c1OC(c1cc(O)c(O)c(O)c1)C(O)C2c1c(O)cc(O)c2c1OC(c1cc(O)c(O)c(O)c1)C(O)C2 (stereo not given)
no

Moving on to the next compound: C[n+]1c2cc(N)ccc2cc2ccc(N)cc21
no

Same for O=c1c(-c2ccc(O)cc2)coc2cc(O)ccc12
no

What about COc1ccc(C(=O)CC(=O)O)c2c1C=CC(C)(C)O2 ?
no

What would you report for Nc1nc(=S)c2[nH]cnc2[nH]1 ?
no

Here is the next compound: COc1ccc(-c2coc3cc(OC)ccc3c2=O)cc1
yes

###

assay_procedure: chemical genetic growth profiling, strain panel (AID 1159580);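 further: tested at 20 µM; growth read once vehicle control cultures reached saturation at 30 °C; 1 = growth at the plate median or of vehicle wells; lower values mean less growth of the strain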
experimental_setup: S. cerevisiae deletion strains, growth OD, locus YPL241C, strain CIN2, active compounds read low
The whole screen tested about 5,500 compounds, of which about 2,000 (36%) were called active. Not shown: some 18% with an inconclusive outcome. Some of the results follow.
Answer each item with its documented normalized growth.

Returns the measured normalized growth for the input molecule. Input: c1ccc2c(c1)CCCC2C1=NCCN1 (stereo not given)
1.01 (inactive)

Moving on to the next molecule: CC(C)(Sc1ccc(CCN(CCCCC2CCCCC2)C(=O)NC2CCCCC2)cc1)C(=O)O
1 (inactive)

Then S=C1NCN(CCN2CCCC2)CN1 ?
0.973 (inactive)

And the next one, Clc1ccc(C(OCCN2CCCCC2)c2ccccc2)cc1 (stereo not given) ?
1 (inactive)

Another molecule to check: Cc1ccc(C)n1-c1ccc(C(=O)NNC(=O)c2ccc3nccnc3c2)cc1
0.976 (inactive)

Now the molecule O=C(O[C@@H]1Cc2c(O)cc(O)cc2O[C@@H]1c1cc(O)c(O)c(O)c1)c1cc(O)c(O)c(O)c1
0.741 (active)

// same read-out, input: CCCCCCCCCCCCN1CNC(=S)NC1
0.484 (active)

Same thing, different molecule: S=c1nc2[nH]c3ccccc3c2n[nH]1
0.974 (inactive)

Next molecule up: Oc1cc(O)c2c(c1)OC(c1cc(O)c(O)c(O)c1)C(O)C2c1c(O)cc(O)c2c1OC(c1cc(O)c(O)c(O)c1)C(O)C2c1c(O)cc(O)c2c1OC(c1cc(O)c(O)c(O)c1)C(O)C2 (stereo not given)
0.974 (inactive)

Now consider Cc1ccc(C)n1-c1ccc(C(=O)NNS(=O)(=O)c2ccc(Cl)cc2)cc1 and answer again.
1.14 [resistant] (active)

###

assay_procedure: chemical genetic growth profiling, strain panel (AID 1159580);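 further: tested at 20 µM; growth read once vehicle control cultures reached saturation at 30 °C; 1 = growth at the plate median or of vehicle wells; lower values mean less growth of the strain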
experimental_setup: S. cerevisiae deletion strains, growth OD, locus YMR058W, strain fet3
Screen size: about 5,500 compounds; about 2,000 (36%) were called active. Not shown: some 18% with an inconclusive outcome. No stated cut-off is given here; in the data, active means normalized growth mostly below about 0.91 (no sharp cut-off); inconclusive means no clear call, values can overlap the other calls; inactive means mostly above about 0.92. This is one part of the list.
Just give me one of these, please: 1 (active), 0 (inactive)

Recorded call for Nc1ncn[nH]1 ?
0

Item: C#CCCCCCCCCCCCc1ccco1
0

Next molecule: CN1C2C[C@H](OC(=O)[C@H](CO)c3ccccc3)C[C@H]1[C@@H](O)C2
0

And for COC(=O)[C@@H]1OC(=O)C2OC23[C@@]1(C)CCC1[C@]2(C)C(C[C@H](O)[C@]13C)C(C)(C)[C@H](OC(C)=O)C[C@@H]2OC(C)=O (some centres undefined) ?
0

Try this molecule too: C=CCCCCCCCCCCCc1ccco1
1

Try this molecule too: CN1CCC(OC(c2ccccc2)c2ccccc2)CC1
0

Now the same for C=C[C@@](C)(O)CCC1C(=C)CCC2[C@@](C)(CO)CCC[C@]12C (some centres undefined)
0

Please give the result for Nc1nc(=S)c2[nH]cnc2[nH]1 too.
0

And C=C1CCC2[C@](C)(CO)[C@H](O)CC[C@@]2(C)[C@@H]1C/C=C1/C(=O)OC[C@H]1O (some centres undefined) ?
0

CN1C2CCC1CC(OC(c1ccccc1)c1ccccc1)C2 (centres undefined) ?
0

Would you kindly repeat that for CCCCCCCCCCCCCc1ccco1 ?
0

Next molecule: O=C(O)/C=C/c1ccc(O)c(O)c1
0

What do you have for O=C(/C=C/c1ccc(O)c(O)c1)OCCc1ccccc1 ?
1

How about this molecule: O=C1NCC2(CCN(CCc3ccccc3)CC2)O1
0

Note, next up: CN(C)CCOC(c1ccc(Cl)cc1)c1ccccn1 (centres undefined)
0

Try CCN(CC)Cc1ccc(Nc2ccnc3cc(Cl)ccc23)cc1O next.
0

How about this molecule: Clc1ccc(C(OCCN2CCCCC2)c2ccccc2)cc1 (centres undefined)
0

What do we get for C=C[C@@](C)(O)CCC1C(=C)C[C@H](OC(C)=O)C2C(C)(C)CCCC12C (some centres undefined) ?
0

Proceed to O=S(=O)(O)c1cc(N=C=S)ccc1/C=C/c1ccc(N=C=S)cc1S(=O)(=O)O
0

Another molecule to look at: NCCc1cnc[nH]1
0

// same read-out, input: Cc1ccccc1C(OCCN(C)C)c1ccccc1 (centres undefined)
0

Same read-out for N=c1ccn2c(n1)OC1C(O)C(CO)OC12 (centres undefined) ?
0

And for COc1ccc(C(=O)CC(=O)O)c2c1C=CC(C)(C)O2 ?
0

Let us now turn to CCCCCCCCCCC[C@@H](C[C@H]1OC(=O)[C@H]1CCCCCC)OC(=O)[C@@H](CC(C)C)NC=O
0

###

assay_procedure: chemical genetic growth profiling, strain panel (AID 1159580);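 further: tested at 20 µM; growth read once vehicle control cultures reached saturation at 30 °C; 1 = growth at the plate median or of vehicle wells; lower values mean less growth of the strain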
experimental_setup: S. cerevisiae deletion strains, growth OD, locus YER016W, strain bim1, active compounds read low
The campaign covered roughly 5,500 compounds. About 2,000 (36%) were called active. Inconclusive results (about 18%) are left out. The list shows a part of the results.
observation_type: normalized growth
Write the value as a bare number.

Which normalized growth value belongs to OCC(O)CN1CCN(c2ccccc2)CC1 (stereo unspecified) ?
0.991

Same again, this time with CO/N=C1/CN(c2nc3c(cc2F)c(=O)c(C(=O)O)cn3C2CC2)CC1CN (stereo unspecified)
1.04

# iterate: O=C(O)c1cc2cc(F)ccc2[nH]1
0.994

Entry to check: O=C(O)/C=C/c1ccc(O)c(O)c1
1.01

Check COc1c(N2CCNC(C)C2)c(F)cc2c(=O)c(C(=O)O)cn(C3CC3)c12 (stereo unspecified) too.
0.985

What do we get for CCn1cc(C(=O)O)c(=O)c2cc(F)c(N3CCNC(C)C3)c(F)c21 (stereo unspecified) ?
0.948

Subsequent entry: CC1CCc2cc(F)cc3c(=O)c(C(=O)O)cn1c23 (stereo unspecified)
1

And for CC1COc2c(N3CCN(C)CC3)c(F)cc3c(=O)c(C(=O)O)cn1c23 (stereo unspecified) ?
1.01

Follow-up entry: CCn1cc(C(=O)O)c(=O)c2cc(F)c(N3CCNCC3)nc21
0.984

Now the same for COc1ccc(C2CNC(=O)C2)cc1OC1CCCC1 (stereo unspecified)
1.01

Field entry: O=C(/C=C/c1ccc(O)c(O)c1)OC(Cc1ccc(O)c(O)c1)C(=O)O (stereo unspecified)
1.04
